// data source = the supplement of paper PMC11208160

So I've got a bunch of sequences here, and I need their recombinant barcode read abundance (log10) values.
# Assay Notes: recombinant barcode read abundance after kanamycin selection (control-corrected) (log10(CPM+1)); higher = more efficient recombination; sequences stand for … in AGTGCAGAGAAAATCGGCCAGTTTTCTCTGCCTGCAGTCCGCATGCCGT…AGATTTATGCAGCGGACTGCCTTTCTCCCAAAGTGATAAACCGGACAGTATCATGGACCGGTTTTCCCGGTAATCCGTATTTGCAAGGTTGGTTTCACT; site = the 11-nt target;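 also: IS621 recombinase and bridge RNA in Escherichia coli cells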
Answer field: number only, no words.

Item GGGCCTACTTGGGTTCTAACCTGTTGCTA (site GGGCCTACTCA) has what recorded recombinant barcode read abundance (log10)?
0.642

Same question for GACTTGCCTTGGGTTCTAACCTGTTGCCT (site GACTTGCCTAG) please.
0.816

Same question for TAGCTGTCTTGGGTTCTAACCTGTTGCGT (site AATCTGTCTAC) please.
0.106

Same question for ATGGTGTCTTGGGTTCTAACCTGTTGCCT (site ATGGTGGCTAG) please.
0.0539

Same question for CTACAACCTTGGGTTCTAACCTGTTGCTT (site CTACAGCCTAA) please.
0.109

Same question for CCGTCTACTTGGGTTCTAACCTGTTGCCT (site CTGTCTACTAG) please.
0.082
